STUDY CONDITIONS: in ethanol, 298.15 K
QUANTITY KIND: solubility (mole fraction)
Numbers only.

solubility (mole fraction) for C=C1C[C@]23C[C@@]1(O)CC[C@H]2[C@@]12C=C[C@H](O)[C@@](C)(C(=O)O1)[C@H]2[C@@H]3C(=O)O is 0.284

----------
STUDY CONDITIONS: in n-hexane, 323.15 K
QUANTITY KIND: solubility (mole fraction)
One number for each entry.

solubility (mole fraction) for C=C1C[C@]23C[C@@]1(O)CC[C@H]2[C@@]12C=C[C@H](O)[C@@](C)(C(=O)O1)[C@H]2[C@@H]3C(=O)O is 0.000666

----------
STUDY CONDITIONS: in n-heptane, 293.15 K
QUANTITY KIND: solubility (mole fraction)

solubility (mole fraction) for C=C1C[C@]23C[C@@]1(O)CC[C@H]2[C@@]12C=C[C@H](O)[C@@](C)(C(=O)O1)[C@H]2[C@@H]3C(=O)O is 0.000192

----------
STUDY CONDITIONS: in ethanol, 283.15 K
QUANTITY KIND: solubility (mole fraction)
Answers are plain numbers.

solubility (mole fraction) for C=C1C[C@]23C[C@@]1(O)CC[C@H]2[C@@]12C=C[C@H](O)[C@@](C)(C(=O)O1)[C@H]2[C@@H]3C(=O)O is 0.205

----------
STUDY CONDITIONS: in n-hexane, 298.15 K
QUANTITY KIND: solubility (mole fraction)

solubility (mole fraction) for C=C1C[C@]23C[C@@]1(O)CC[C@H]2[C@@]12C=C[C@H](O)[C@@](C)(C(=O)O1)[C@H]2[C@@H]3C(=O)O is 0.00033

----------
STUDY CONDITIONS: in chloroform, 288.15 K
QUANTITY KIND: solubility (mole fraction)
Give bare numbers.

solubility (mole fraction) for C=C1C[C@]23C[C@@]1(O)CC[C@H]2[C@@]12C=C[C@H](O)[C@@](C)(C(=O)O1)[C@H]2[C@@H]3C(=O)O is 0.0386

----------
STUDY CONDITIONS: in n-heptane, 308.15 K
QUANTITY KIND: solubility (mole fraction)
One number for each entry.

solubility (mole fraction) for C=C1C[C@]23C[C@@]1(O)CC[C@H]2[C@@]12C=C[C@H](O)[C@@](C)(C(=O)O1)[C@H]2[C@@H]3C(=O)O is 0.000349

----------
STUDY CONDITIONS: in chloroform, 283.15 K
QUANTITY KIND: solubility (mole fraction)
One number for each entry.

solubility (mole fraction) for C=C1C[C@]23C[C@@]1(O)CC[C@H]2[C@@]12C=C[C@H](O)[C@@](C)(C(=O)O1)[C@H]2[C@@H]3C(=O)O is 0.0302

----------
STUDY CONDITIONS: in chloroform, 293.15 K
QUANTITY KIND: solubility (mole fraction)
One number for each entry.

solubility (mole fraction) for C=C1C[C@]23C[C@@]1(O)CC[C@H]2[C@@]12C=C[C@H](O)[C@@](C)(C(=O)O1)[C@H]2[C@@H]3C(=O)O is 0.0479

----------
STUDY CONDITIONS: in isopropanol, 298.15 K
QUANTITY KIND: solubility (mole fraction)

solubility (mole fraction) for C=C1C[C@]23C[C@@]1(O)CC[C@H]2[C@@]12C=C[C@H](O)[C@@](C)(C(=O)O1)[C@H]2[C@@H]3C(=O)O is 0.000752

----------
STUDY CONDITIONS: in acetone, 298.15 K
QUANTITY KIND: solubility (mole fraction)

solubility (mole fraction) for C=C1C[C@]23C[C@@]1(O)CC[C@H]2[C@@]12C=C[C@H](O)[C@@](C)(C(=O)O1)[C@H]2[C@@H]3C(=O)O is 0.181

----------
STUDY CONDITIONS: in n-butanol, 293.15 K
QUANTITY KIND: solubility (mole fraction)

solubility (mole fraction) for C=C1C[C@]23C[C@@]1(O)CC[C@H]2[C@@]12C=C[C@H](O)[C@@](C)(C(=O)O1)[C@H]2[C@@H]3C(=O)O is 0.00554

----------
STUDY CONDITIONS: in n-heptane, 323.15 K
QUANTITY KIND: solubility (mole fraction)
Answers are plain numbers.

solubility (mole fraction) for C=C1C[C@]23C[C@@]1(O)CC[C@H]2[C@@]12C=C[C@H](O)[C@@](C)(C(=O)O1)[C@H]2[C@@H]3C(=O)O is 0.000537

----------
STUDY CONDITIONS: in THF, 298.15 K
QUANTITY KIND: solubility (mole fraction)
Give bare numbers.

solubility (mole fraction) for C=C1C[C@]23C[C@@]1(O)CC[C@H]2[C@@]12C=C[C@H](O)[C@@](C)(C(=O)O1)[C@H]2[C@@H]3C(=O)O is 0.252

----------
STUDY CONDITIONS: in DMSO, 298.15 K
QUANTITY KIND: solubility (mole fraction)
One number for each entry.

solubility (mole fraction) for C=C1C[C@]23C[C@@]1(O)CC[C@H]2[C@@]12C=C[C@H](O)[C@@](C)(C(=O)O1)[C@H]2[C@@H]3C(=O)O is 0.207

----------
STUDY CONDITIONS: in n-heptane, 318.15 K
QUANTITY KIND: solubility (mole fraction)

solubility (mole fraction) for C=C1C[C@]23C[C@@]1(O)CC[C@H]2[C@@]12C=C[C@H](O)[C@@](C)(C(=O)O1)[C@H]2[C@@H]3C(=O)O is 0.000471

----------
STUDY CONDITIONS: in n-heptane, 303.15 K
QUANTITY KIND: solubility (mole fraction)
Numbers only.

solubility (mole fraction) for C=C1C[C@]23C[C@@]1(O)CC[C@H]2[C@@]12C=C[C@H](O)[C@@](C)(C(=O)O1)[C@H]2[C@@H]3C(=O)O is 0.000289

----------
STUDY CONDITIONS: in ethyl acetate, 308.15 K
QUANTITY KIND: solubility (mole fraction)
Numbers only.

solubility (mole fraction) for C=C1C[C@]23C[C@@]1(O)CC[C@H]2[C@@]12C=C[C@H](O)[C@@](C)(C(=O)O1)[C@H]2[C@@H]3C(=O)O is 0.175

----------
STUDY CONDITIONS: in n-butanol, 298.15 K
QUANTITY KIND: solubility (mole fraction)
Numbers only.

solubility (mole fraction) for C=C1C[C@]23C[C@@]1(O)CC[C@H]2[C@@]12C=C[C@H](O)[C@@](C)(C(=O)O1)[C@H]2[C@@H]3C(=O)O is 0.00704

----------
STUDY CONDITIONS: in n-butanol, 303.15 K
QUANTITY KIND: solubility (mole fraction)
Answers are plain numbers.

solubility (mole fraction) for C=C1C[C@]23C[C@@]1(O)CC[C@H]2[C@@]12C=C[C@H](O)[C@@](C)(C(=O)O1)[C@H]2[C@@H]3C(=O)O is 0.00876

----------
STUDY CONDITIONS: in chloroform, 308.15 K
QUANTITY KIND: solubility (mole fraction)
One number for each entry.

solubility (mole fraction) for C=C1C[C@]23C[C@@]1(O)CC[C@H]2[C@@]12C=C[C@H](O)[C@@](C)(C(=O)O1)[C@H]2[C@@H]3C(=O)O is 0.085

----------
STUDY CONDITIONS: in n-heptane, 278.15 K
QUANTITY KIND: solubility (mole fraction)

solubility (mole fraction) for C=C1C[C@]23C[C@@]1(O)CC[C@H]2[C@@]12C=C[C@H](O)[C@@](C)(C(=O)O1)[C@H]2[C@@H]3C(=O)O is 8.4e-05

----------
STUDY CONDITIONS: in n-heptane, 298.15 K
QUANTITY KIND: solubility (mole fraction)
One number for each entry.

solubility (mole fraction) for C=C1C[C@]23C[C@@]1(O)CC[C@H]2[C@@]12C=C[C@H](O)[C@@](C)(C(=O)O1)[C@H]2[C@@H]3C(=O)O is 0.000236

----------
STUDY CONDITIONS: in acetonitrile, 293.15 K
QUANTITY KIND: solubility (mole fraction)
Give bare numbers.

solubility (mole fraction) for C=C1C[C@]23C[C@@]1(O)CC[C@H]2[C@@]12C=C[C@H](O)[C@@](C)(C(=O)O1)[C@H]2[C@@H]3C(=O)O is 0.0197

----------
STUDY CONDITIONS: in isopropanol, 283.15 K
QUANTITY KIND: solubility (mole fraction)
Give bare numbers.

solubility (mole fraction) for C=C1C[C@]23C[C@@]1(O)CC[C@H]2[C@@]12C=C[C@H](O)[C@@](C)(C(=O)O1)[C@H]2[C@@H]3C(=O)O is 0.000563

----------
STUDY CONDITIONS: in chloroform, 298.15 K
QUANTITY KIND: solubility (mole fraction)
Give bare numbers.

solubility (mole fraction) for C=C1C[C@]23C[C@@]1(O)CC[C@H]2[C@@]12C=C[C@H](O)[C@@](C)(C(=O)O1)[C@H]2[C@@H]3C(=O)O is 0.0591
